- TESTED_ON: NHE1 (Rattus norvegicus, UniProt P26431)
- Sequence (P26431 whole entry): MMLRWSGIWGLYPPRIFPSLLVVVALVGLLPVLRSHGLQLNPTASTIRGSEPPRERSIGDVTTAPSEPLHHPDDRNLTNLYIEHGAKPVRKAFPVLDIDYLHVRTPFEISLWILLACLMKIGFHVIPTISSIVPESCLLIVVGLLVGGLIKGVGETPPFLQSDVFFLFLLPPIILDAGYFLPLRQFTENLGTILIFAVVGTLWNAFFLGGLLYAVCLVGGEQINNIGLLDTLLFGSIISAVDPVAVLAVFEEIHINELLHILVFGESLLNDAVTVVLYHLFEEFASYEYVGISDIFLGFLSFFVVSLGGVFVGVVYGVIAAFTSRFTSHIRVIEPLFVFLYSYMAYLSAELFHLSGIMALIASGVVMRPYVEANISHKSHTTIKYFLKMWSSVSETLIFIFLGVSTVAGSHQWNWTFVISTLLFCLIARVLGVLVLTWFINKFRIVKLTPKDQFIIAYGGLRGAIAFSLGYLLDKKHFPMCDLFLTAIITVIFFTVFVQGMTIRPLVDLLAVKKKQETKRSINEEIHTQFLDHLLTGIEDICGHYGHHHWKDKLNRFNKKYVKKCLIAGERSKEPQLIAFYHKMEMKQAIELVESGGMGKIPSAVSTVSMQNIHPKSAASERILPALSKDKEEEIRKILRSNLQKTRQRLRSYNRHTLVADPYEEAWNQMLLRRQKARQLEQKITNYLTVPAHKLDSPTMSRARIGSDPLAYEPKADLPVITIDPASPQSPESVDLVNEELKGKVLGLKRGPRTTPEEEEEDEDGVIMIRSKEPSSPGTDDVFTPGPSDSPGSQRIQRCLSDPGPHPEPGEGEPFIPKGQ
- ASSAY_NOTES: BCECF intracellular pH recovery after ammonium prepulse
MEASURED_PARAMETER: pIC50
Numbers only, as −log10 of the molar value.

**Query** Lab note: need pIC50 with NHE1 (Rattus norvegicus, UniProt P26431) for entry CC(C)c1ccc(C(=O)NC(=N)N)cc1S(C)(=O)=O [cariporide] , please look it up.
**Result** 5.96
